Data provenance is patent US20250186541A1.

System Under Test: T1, Biotinylated human DLL3 (human, UniProt Q9NYJ7 27-492, biotinylated (site not stated))
T1 construct: also called Delta-like ligand 3; Delta Like Canonical Notch Ligand 3
T1 sequence (looked up): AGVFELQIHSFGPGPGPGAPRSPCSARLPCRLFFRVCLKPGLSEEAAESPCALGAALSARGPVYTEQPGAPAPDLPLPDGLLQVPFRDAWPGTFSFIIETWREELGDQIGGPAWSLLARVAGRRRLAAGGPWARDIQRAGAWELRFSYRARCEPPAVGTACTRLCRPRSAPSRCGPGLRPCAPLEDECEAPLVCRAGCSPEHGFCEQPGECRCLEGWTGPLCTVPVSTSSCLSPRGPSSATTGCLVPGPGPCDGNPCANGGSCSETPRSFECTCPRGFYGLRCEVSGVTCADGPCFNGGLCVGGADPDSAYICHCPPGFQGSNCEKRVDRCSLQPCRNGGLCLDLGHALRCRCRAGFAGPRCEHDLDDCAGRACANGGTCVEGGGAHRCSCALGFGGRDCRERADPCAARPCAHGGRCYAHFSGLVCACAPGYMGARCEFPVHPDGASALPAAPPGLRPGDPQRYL
Test Details: SPR, biotin-hDLL3 on SA chip
Bridge positions count the residues as written; N and C are the ends. Square brackets hold non-standard residues; d marks the D form. * marks the point of attachment. DOTA = O=C(O)CN1CCN(CC(=O)O)CCN(CC(=O)*)CCN(CC(=O)O)CC1; hPhe = N[C@@H](CCc1ccccc1)C(=O)O; Ahx = NCCCCCC(=O)O
Assay Readout: Kd (nM)
Reply numerically in nM, unit not repeated.

{DOTA}-[Ahx]SDCWLQWNCP[hPhe]D-NH2 (disulfide 4-10; SMILES CC(C)C[C@@H]1NC(=O)[C@H](Cc2c[nH]c3ccccc23)NC(=O)[C@@H](NC(=O)[C@H](CC(=O)O)NC(=O)[C@H](CO)NC(=O)CCCCCNC(=O)CN2CCN(CC(=O)O)CCN(CC(=O)O)CCN(CC(=O)O)CC2)CSSC[C@@H](C(=O)N2CCC[C@H]2C(=O)N[C@@H](CCc2ccccc2)C(=O)N[C@@H](CC(=O)O)C(N)=O)NC(=O)[C@H](CC(N)=O)NC(=O)[C@H](Cc2c[nH]c3ccccc23)NC(=O)[C@H](CCC(N)=O)NC1=O) [Cpd #41]; 83

Please find the next binder below.
Data request: Recorded Kd of Ac-[dK]SDCWLQWNCPFD[dK](DOTA)-NH2 (disulfide 4-10) [Cpd #84] , please.
Data returned: 29
